molecular target: CXC-motif chemokine ligand 10 (CXCL10) (human, UniProt P02778 22-98); assay: BLI
This listing pairs binders with measured Kd.

binder	Kd (µM)
P1090_IXORI (natural protein) GSKELSGPESSENSIEAAFCDTNCTEGTDGVWSGCSAGCFCVHVGNSTVGRCMTFNGVD	0.0239
P675 (natural protein, also: glycosylated) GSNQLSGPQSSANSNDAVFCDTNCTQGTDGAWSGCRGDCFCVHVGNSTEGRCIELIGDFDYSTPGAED	3.12
P1080_IXORI (natural protein) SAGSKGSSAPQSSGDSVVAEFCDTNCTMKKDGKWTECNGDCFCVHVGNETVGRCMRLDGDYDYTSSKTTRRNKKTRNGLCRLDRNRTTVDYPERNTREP	1.26
